For each record, write down the corresponding inhibition at 0.3 µM.
Target: h-DHODH (Homo sapiens, UniProt Q02127)
Construct: endogenous in cells; host or cells: U937 cells (membrane fraction, solubilised with 1% octyl glucoside)
Sequence (Q02127 whole entry): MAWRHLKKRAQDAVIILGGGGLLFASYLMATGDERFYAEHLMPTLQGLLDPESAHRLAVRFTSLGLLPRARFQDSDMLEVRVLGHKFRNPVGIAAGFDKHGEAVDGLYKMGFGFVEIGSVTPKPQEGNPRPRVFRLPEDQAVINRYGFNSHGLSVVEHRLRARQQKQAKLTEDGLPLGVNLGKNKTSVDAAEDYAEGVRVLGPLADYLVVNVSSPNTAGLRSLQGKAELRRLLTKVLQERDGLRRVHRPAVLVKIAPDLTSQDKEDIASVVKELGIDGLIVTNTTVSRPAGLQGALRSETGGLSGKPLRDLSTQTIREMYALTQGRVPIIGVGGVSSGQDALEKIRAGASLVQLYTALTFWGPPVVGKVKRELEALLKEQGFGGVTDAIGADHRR
Assay: Dihydro-orotate dehydrogenase inhibition assay (U937 membrane preparations, DCIP reduction)
Format: biochemical
Settings: compound tested at 0.3 uM (footnote *); U937 membrane preparation
One number for each entry, in %.

In the examples that follow, each entry is paired with its recorded inhibition at 0.3 µM.
chemical-string	inhibition at 0.3 µM (%)
O=C(O)c1ccccc1C(=O)Nc1ccc(-c2ccccc2)cc1	15.1
CCCOc1cccc(-c2ccc(NC(=O)c3ccccc3C(=O)O)c(F)c2)c1	47.6
CCOc1cccc(-c2cc(F)c(NC(=O)c3cccc(C)c3C(=O)O)c(F)c2)c1	7.14
O=C(O)c1ccccc1C(=O)Nc1ccc(-c2cccc(OC(F)(F)F)c2)cc1	62.2
COc1cccc(-c2ccc(NC(=O)c3ccccc3C(=O)O)cc2)c1	30.2

Each molecule below has a reported value. Please supply its inhibition at 0.3 µM.
1. O=C(O)c1ccccc1C(=O)Nc1ccc(-c2ccccc2Cl)cc1
2. CCCOc1cccc(-c2ccc(NC(=O)c3ccccc3C(=O)O)cc2)c1
3. O=C(O)c1ccccc1C(=O)Nc1c(F)cc(-c2cccc(OCC(F)(F)F)c2)cc1F

Reply |
1: 33.6; 2: 11.2; 3: 43.6

* * *

Molecular target: h-DHODH (Homo sapiens)
Construct: endogenous in cells; host or cells: U937 cells (membrane fraction, solubilised with 1% octyl glucoside)
Experiment: Dihydro-orotate dehydrogenase inhibition assay (U937 membrane preparations, DCIP reduction)
Type: biochemical
Settings: 1 uM; U937 membrane preparation
Classification field. Basis: inhibition at 1 µM. Definitions: class 0: < 40%; class 1: ≥ 40% and < 70%; class 2: ≥ 70%

Ask | Exam item: assign COc1cccc(-c2ccc(NC(=O)c3ccccc3C(=O)O)c(F)c2)c1 to the correct category.
Reply | class 0

Ask | Exam item: assign CCOc1cccc(-c2ccc(NC(=O)c3ccccc3C(=O)O)c(F)c2)c1 to the correct category.
Reply | class 1

Ask | Exam item: assign O=C(O)c1ccccc1C(=O)Nc1c(F)cc(-c2cccc(OCC(F)(F)F)c2)cc1Cl to the correct category.
Reply | class 2

Ask | Exam item: assign COc1cc(Cl)cc(-c2cc(F)c(NC(=O)c3ccccc3C(=O)O)c(F)c2)c1 to the correct category.
Reply | class 1

Ask | Exam item: assign COc1cccc(-c2cc(F)c(NC(=O)c3nccnc3C(=O)O)c(F)c2)c1 to the correct category.
Reply | class 0

Ask | Exam item: assign CCOc1cccc(-c2cc(F)c(NC(=O)c3nccnc3C(=O)O)c(F)c2)c1 to the correct category.
Reply | class 0

Ask | Exam item: assign O=C(O)c1ccccc1C(=O)Nc1ccc(-c2cccc(OC3CC3)c2)cc1F to the correct category.
Reply | class 0

Ask | Exam item: assign CC(C)COc1cccc(-c2cc(F)c(NC(=O)c3ccccc3C(=O)O)c(F)c2)c1 to the correct category.
Reply | class 2

Ask | Exam item: assign O=C(O)c1ccccc1C(=O)Nc1c(F)cc(-c2ccc3c(c2)OCO3)cc1Cl to the correct category.
Reply | class 1

* * *

Target: h-DHODH (Homo sapiens, UniProt Q02127)
Construct: endogenous in cells; host or cells: U937 cells (membrane fraction, solubilised with 1% octyl glucoside)
Test: Dihydro-orotate dehydrogenase inhibition assay (U937 membrane preparations, DCIP reduction)
Type: biochemical
Settings: 1 uM; U937 membrane preparation
property-measured: inhibition at 1 µM
Your reply should be a number followed by the unit it is expressed in.

Each molecule below has a reported value. Please supply its inhibition at 1 µM.
1. O=C(O)c1ccccc1C(=O)Nc1c(F)cc(-c2ccc3c(c2)OCCO3)cc1Cl
2. COc1ccc(Cl)c(-c2cc(F)c(NC(=O)c3ccccc3C(=O)O)c(F)c2)c1
3. CCc1c[nH]c2ccc(-c3cc(F)c(NC(=O)c4ccccc4C(=O)O)c(Cl)c3)cc12
4. COc1ccc(-c2cc(F)c(NC(=O)c3ccccc3C(=O)O)c(Cl)c2)cc1OC

Reply |
1: 54.1%; 2: 96.2%; 3: 58.7%; 4: 1.77%
